Below, each of the molecules is paired with its reported DC50 value.
target: BRD4 (Homo sapiens, UniProt O60885); construct: HiBiT-BRD4 HEK293 CRISPR CPM (Promega CS302312); host or cells: HEK293, CRISPR-edited (HiBiT at the BRD4 locus); assay: BRD4 degradation, HiBiT-BRD4 HEK293 CRISPR CPM cells, NanoGlo Lytic Endpoint assay (Assay Protocol 1); assay type: cell-based; settings: Table 5

Here are 3 molecules together with their reported answers.
COc1cc(-c2cn(C)c(=O)c(C)c2C)cc(OC)c1CN(C)C(=O)/C(C#N)=C/C(C)(C)C [BRD9ac] :: > 1000 nM
COc1cc(-c2cn(C)c(=O)c(C)c2C)cc(OC)c1CN1CCN(C(=O)/C(C#N)=C/C(C)(C)C)CC1 [BRD9a] :: 25 to 1000 nM
COc1cc(-c2cn(C)c(=O)c(C)c2C)cc(OC)c1CN1CC2CC1CN2C(=O)/C(C#N)=C/c1nccs1 (mixture of isomers) [BRD9i] :: > 1000 nM

# next molecule below
In: Recall the recorded DC50 for COc1cc(-c2cn(C)c(=O)c(C)c2C)cc(OC)c1CN1CCN(C(=O)/C(C#N)=C/C(C)(C)C)C2(CC2)C1 [BRD9e] with BRD4 (Homo sapiens, UniProt O60885) and state it.
Out: 25 to 1000 nM

* * *

molecular target: BRD9 (Homo sapiens, UniProt Q9H8M2); experiment: BRD9 degradation, HiBiT-BRD9 KI HEK293 (LgBiT) cells, NanoGlo Lytic Endpoint assay (Assay Protocol 1); assay type: cell-based; details: HEK293; Assay protocol 1; BRD9 degradation; read-out: Dmax
experimentalReadout: Dmax

Some solved entries appear below for comparison.
COc1cc(-c2cn(C)c(=O)c(C)c2C)cc(OC)c1CN(C)Cc1ccc(C2CCCN2C(=O)/C(C#N)=C/C(C)(C)C)cc1 (mixture of isomers) :: 40 to 70%
COc1cc(-c2cn(C)c(=O)c(C)c2C)cc(OC)c1CN(C)Cc1cccc(C2CCCN2C(=O)/C(C#N)=C/C(C)(C)C)c1 (mixture of isomers) :: > 75%

Could you now look at the following compound, please?
In: Consider the compound CCCC(c1ccc(C(=O)N(C)CCCCC(=O)N2CCN(Cc3c(OC)cc(-c4cn(C)c(=O)c(C)c4C)cc3OC)CC2)cc1)N(C)C(=O)/C(C#N)=C/c1nccs1 (mixture of isomers) and give its measured Dmax.
Out: 40 to 70%

* * *

Here, each record is paired with measured Dmax data.
Target: BRD9 (Homo sapiens)
Sequence (Q9H8M2 1-597): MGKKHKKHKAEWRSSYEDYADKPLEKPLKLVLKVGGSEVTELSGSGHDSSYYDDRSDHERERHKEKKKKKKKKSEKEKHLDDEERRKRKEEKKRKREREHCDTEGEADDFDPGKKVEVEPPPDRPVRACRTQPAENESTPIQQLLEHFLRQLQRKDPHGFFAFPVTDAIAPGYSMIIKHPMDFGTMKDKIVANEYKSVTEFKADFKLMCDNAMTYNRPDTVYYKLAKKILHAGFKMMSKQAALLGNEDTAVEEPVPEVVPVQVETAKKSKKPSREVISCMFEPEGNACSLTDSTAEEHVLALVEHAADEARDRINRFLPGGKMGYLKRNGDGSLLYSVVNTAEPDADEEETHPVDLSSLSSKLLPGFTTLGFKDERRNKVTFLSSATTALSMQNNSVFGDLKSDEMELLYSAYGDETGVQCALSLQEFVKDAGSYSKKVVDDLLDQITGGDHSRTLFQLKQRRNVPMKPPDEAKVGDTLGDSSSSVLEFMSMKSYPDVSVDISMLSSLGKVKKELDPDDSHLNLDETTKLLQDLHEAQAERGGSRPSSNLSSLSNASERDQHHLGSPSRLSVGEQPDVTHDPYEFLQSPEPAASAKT
Experiment: Degradation of BRD9 (IF), immunofluorescence in MV4-11 cells, 24 hours (Assay Protocol 2)
Assay type: cell-based
Set-up: A suspension of MV4-11 cells (ATCC CRL-9591) was prepared; host or cells: MV4-11
Settings: MV4-11, Assay protocol 2; BRD9 degradation; read-out: Dmax
Experimental: Assay Protocol 2—Degradation of BRD9 (IF) A suspension of MV4-11 cells (ATCC CRL-9591) was prepared in phenol red-free assay media (IMDM Thermo Scientific 21056023+10% FBS ATCC 302025) and cells were seeded at 20,000 cells per well (45 μL) in sterile black poly-d-lysine coated 384 well plates (Greiner 781948). Compounds were prepared at 1000× final concentration in DMSO, diluted 1:100 in assay media, and 5 μL compound was added to each well of the cell plate. […]

Worked examples, 2 compounds total:
COc1cc(-c2cn(C)c(=O)c(C)c2C)cc(OC)c1CN1CC2CC(C1)N2Cc1cccc2c1CCN(C(=O)/C(C#N)=C/c1cccc(Br)n1)C2C (mixture of isomers) :: 40 to 70%
COc1cc(-c2cn(C)c(=O)c(C)c2C)cc(OC)c1CN1CC(Oc2cccc(C3CCCN3C(=O)/C(C#N)=C/C(C)(C)C)c2)C1 (mixture of isomers) :: > 75%

Now look at this one.
In: Record request: Dmax value, item COc1cc(-c2cn(C)c(=O)c(C)c2C)cc(OC)c1CN1CCC(Oc2cccc3c2CCN(C(=O)/C(C#N)=C/C(C)(C)C)C3C)C1 (stereo in doubt)
Out: 40 to 70%
